System: washed human platelets
Assay: Inhibition of ADP-induced platelet aggregation in washed human platelets
Format: cell-based
Conditions: comment on Table 1 data, washed human platelets
quantity kind: activity as antagonists of P2Y12-mediated platelet aggregation (in words)

>>> reading("CCNC(=O)Nc1ncnc2c1ncn2C1OC(C(=O)N2CCC[C@H]2C(=O)O)C2OC(c3ccccc3)OC21 (stereo in doubt)")
"improved potency"
>>> reading("CCNC(=O)Nc1ncnc2c1ncn2C1OC(C(=O)N2CCC[C@H]2C(=O)O)C2O[C@H](c3ccccc3)OC21 (some centres unmarked)")
"improved potency"
>>> reading("CCNC(=O)Nc1ncnc2c1ncn2C1OC(C(=O)N2CCC[C@@H]2C(=O)O)C2O[C@H](/C=C/c3ccccc3)OC21 (some centres unmarked)")
"improved potency"
